# Tested on: MCF7
# assay.overview: Cytotoxicity against human MCF7 cells assessed as reduction in cell viability
# Type: functional, cell-based
pIC50: −log10 of the molar value.
In this section, each of the molecules is paired with its reported pIC50.
assay.readout: pIC50

smiles.notation: CO[C@H]1c2c([nH]c3ccccc23)[C@H](C=C(C)C)N2C(=O)[C@@H]3CCCN3C(=O)[C@@]12O
val: 4.97
//
smiles.notation: COc1ccc2c3c([nH]c2c1)[C@H](C=C(C)C)N1C(=O)[C@]2(O)CCCN2C(=O)[C@@]1(O)[C@H]3OC
val: 5.12

###

# System: A549
# assay.overview: Cytotoxicity against human A549 cells assessed as reduction in cell viability by MTT assay
# Type: functional, cell-based
pIC50: −log10 of the molar value.

smiles.notation: CC(C)C[C@H]1NC(=O)[C@H](CCC(N)=O)n2c1nc1ccccc1c2=O
pIC50: 5.22
